All figures here come from paper PMC4768215.

Kd for assorted binders
- target.entity: T1, QCD-32g58 LMW SLP (low-molecular-weight subunit of the QCD-32g58 surface layer protein) (Clostridioides difficile QCD-32g58 …, UniProt A0A9R0BMB3, strain)
- T1 construct: low-molecular-weight (LMW) subunit of the surface layer protein, cut from the precursor SlpA by Cwp84, C. difficile strain QCD-32g58 (ribotype 027); predicted mass 33.9 kDa; also called QCD-32g58 SLP LMW subunit; LMW subunit; source: purified from C. difficile QCD-32g58 (low-pH glycine extraction, minor SEC peak at about 15 ml); in the Western blot the LMW band of the extracted SLPs
- protocol.notes: SPR; Biacore 3000; SEC-purified QCD-32g58 LMW SLP subunit amine-coupled to a CM5 chip; single-concentration screen, 200 nM VHH; 25 °C, 10 mM HEPES pH 7.4, 150 mM NaCl, 3 mM EDTA, 0.005 % P20
- conditions: both partners purified

| binder | Kd (nM) |
| --- | --- |
| SLP_VHH46 (VHH, From an immune llama phage display library panned on QCD-32g58 SLP; source: monomeric SEC fractions for SPR; not shown: His6, C-terminal, kept) VHH: QVKLEESGGGLVQAGGSLRLSCADSERTFRIYTMAWFRQAPGKERDFVAAISWSGGSTYYADSVKGRFTISRDNAKNTVYLPMNSLKPDDTAVYYCASGGVLSTGSQSDSEYDFWGQGTQVTVSS | 2 |
| SLP_VHH5 (VHH, From an immune llama phage display library panned on QCD-32g58 SLP; source: monomeric SEC fractions for SPR; not shown: His6, C-terminal, kept) VHH: QVKLEESGGGLVQAGGSLRLSCAASRLTFSTYHMGWFRQAPGKEREFVAALSWSGGTTYYADSVKGRFGISRDNAKNTVYLQMNSLKPEDTAVYYCASGGVLATMNSDEYDYWGQGTQVTVSS | 3 |
| SLP_VHH2 (VHH, From an immune llama phage display library panned on QCD-32g58 SLP; source: monomeric SEC fractions for SPR; not shown: His6, C-terminal, kept) VHH: QVKLEESGGGLVQPGGSLRLSCAASGGTFTNYAMAWFRQTPGNDREFVGIISQKGGRTYYADSVKGRFSVSRDNAKNTAYLQMNSLKPEDTAVYYCAAGDSSYYYTRSRYDIWGQGTQVTVSS | 90 |
| SLP_VHH23 (VHH, From an immune llama phage display library panned on QCD-32g58 SLP; source: monomeric SEC fractions for SPR; not shown: His6, C-terminal, kept) VHH: QVQLVESGGGLVQAGGSLRLSCAASGRTFSSYAVGWFRQAPGKEREFVAAISWSGGYTDYADSVKGRFTISRDNAKNTVYLQMNNLKPEDTAVYYCAADWSHPENKAELLRLRLWVLSAESSDDWGQGTQVTVSS | 3 |
| SLP_VHH50 (VHH, From an immune llama phage display library panned on QCD-32g58 SLP; source: monomeric SEC fractions for SPR; not shown: His6, C-terminal, kept) VHH: QVKLEESGGGLVQPGGSLRLSCAASGFTLDYYTIGWFRQAPGKEREGVACISSDDRTYYVDSVKGRFAISRDNVKNTVYLQMNNLKPEDTAVYYCASKESVFLIATMKGCAPGHDDYWGQGTQVTVSS | 14 |
| SLP_VHH12 (VHH, From an immune llama phage display library panned on QCD-32g58 SLP; source: monomeric SEC fractions for SPR; not shown: His6, C-terminal, kept) VHH: QVQLVESGGGLVQAGDSLRLSCAASGGTFSSYAVGWFRQAPGKERQFVAAISWSGRSTEYADSVKGRFTISRDNAKNTVYLQMNSLQPDDTGVYYCAADWSHPENKAELLRLRLWVLSAESSDYWGQGTQVTVSS | 1 |
